# Target Or Test System: KRAS-G12D (Homo sapiens, UniProt P01116, G12D)
# Sequence (P01116 with tags, fused parts or gaps isoform P01116-2 G12D): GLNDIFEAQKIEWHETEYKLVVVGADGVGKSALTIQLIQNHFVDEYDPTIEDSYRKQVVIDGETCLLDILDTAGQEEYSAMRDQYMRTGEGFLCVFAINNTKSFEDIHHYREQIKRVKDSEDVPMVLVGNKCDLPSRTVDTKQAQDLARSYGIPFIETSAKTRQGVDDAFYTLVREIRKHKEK
# Test Details: SOS-catalyzed nucleotide exchange assay (Procedure A, TR-FRET), KRAS-G12D
# Assay type: biochemical
# Recorded Conditions: nucleotide exchange, read-out: KRAS G12D GNE IC50
// map IC50 onto a label; ranges band 1 = under 4 nM, band 2 = from 4 nM up to 40 nM, band 3 = 40 nM and over

Request: Category of CN(C)C[C@@]1(COc2nc(N3CCOC[C@@](C)(O)C3)c3c(n2)sc2c(-c4c(C5CC5)c(Cl)cc5[nH]ncc45)nccc23)CC1(F)F , please.
Response: band 1

Request: C#Cc1c(F)ccc2cc(O)cc(-c3nccc4c3sc3nc(OC[C@@]56CCCN5C[C@H](F)C6)nc(N5CCOC[C@@](C)(O)C5)c34)c12 ?
Response: band 1

Request: C[C@@]1(O)COCCN(c2nc(OC[C@@]34CCCN3C[C@H](F)C4)nc3sc4c(-c5c(C6CC6)c(C#N)cc6[nH]ncc56)nccc4c23)C1 ?
Response: band 3

Request: C[C@@]1(O)COCCN(c2nc(OC[C@@]34CCCN3C[C@H](F)C4)nc3sc4c(-c5c(-c6cc[nH]c6)c(Cl)cc6[nH]ncc56)nccc4c23)C1 ?
Response: band 2

Request: Cc1cc2[nH]ncc2c(-c2nccc3c2sc2nc(OC[C@@]45CCCN4C[C@H](F)C5)nc(N4CCC[C@@]5(CNC(=O)O5)C4)c23)c1C(F)(F)F ?
Response: band 2

The origin of these recorded values is patent US20260176289A1.
